Each recorded value in this set is attributed to the supplement of paper PMC9170038.

- Test system: MS2 coat protein
- experiment-description: apparent KD of MS2 coat protein; designed switch direction (-1 OFF switch, 1 ON switch): -1; higher = weaker reporter binding
- condition-label: Eterna round: R95; input ligand: microRNA oligo, concentration not stated
Rule: apparent KD of MS2 coat protein of 40 nM or more gives y; anything lower gives n.

Consider the following illustrative entries.
UUUCAACAUGAGGAUCACCCAUGUGAGGAUAUGAUGCAGCAGUGGUCUACGCUGUGCAUCAGAAGGCACAUGUG (puzzle: Exclusion 1)    y
CUUUUGUGAGGAUAUCAGUAGUAAAAAAAUAAAAUUUCUACUGAGAAGGCACAUGAGGAUCACCCAUGUUCCUC [salish99_ex4_r3_026] (puzzle: Exclusion 4)    n

// query Test whether the sequence AUGAGACAUGAGGAUCACCCAUGUGAGGAUAUGUAUGGAUGGUGGAAAGAAUGAGAGAACAGAAGGCACGUAGA [JR_Exclu1_Sub062] (puzzle: Exclusion 1) records apparent KD of MS2 coat protein of 40 nM or higher.
// result y

// query AAGCCUCAGGUUAGGAUAUACGCCUGGCCGAAGGAGUAGAAGGGACAUGAGGAUCACCCAUGUGGGUUCAAAAG [Atanvege] (puzzle: Brourd's mod of Exclusion 4) , same question.
// result y

// query UUAACGUGGGCGUCCCACAGCAAGCUUUUUGCUCGUUUAACAUGAGGAUCACCCAUGUCGCUGCGGGAUCCCUAUGA [Abeisat] (puzzle: Sensor v3, turn-off variant 2) , same question.
// result n
